Consider the following compounds; for each one, report its IC50.
Target: CDK4/cyclin D1 (Homo sapiens)
Sequence (P11802 whole entry, species assumed): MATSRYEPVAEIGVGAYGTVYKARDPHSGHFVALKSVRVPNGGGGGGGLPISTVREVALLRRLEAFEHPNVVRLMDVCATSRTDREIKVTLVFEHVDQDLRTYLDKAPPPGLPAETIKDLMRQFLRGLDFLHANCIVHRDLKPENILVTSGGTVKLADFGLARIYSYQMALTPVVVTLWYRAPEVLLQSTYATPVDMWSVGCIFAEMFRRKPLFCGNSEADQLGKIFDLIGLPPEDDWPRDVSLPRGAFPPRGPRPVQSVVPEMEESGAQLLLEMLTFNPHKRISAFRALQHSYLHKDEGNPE
Sequence (P24385 whole entry partner, species assumed): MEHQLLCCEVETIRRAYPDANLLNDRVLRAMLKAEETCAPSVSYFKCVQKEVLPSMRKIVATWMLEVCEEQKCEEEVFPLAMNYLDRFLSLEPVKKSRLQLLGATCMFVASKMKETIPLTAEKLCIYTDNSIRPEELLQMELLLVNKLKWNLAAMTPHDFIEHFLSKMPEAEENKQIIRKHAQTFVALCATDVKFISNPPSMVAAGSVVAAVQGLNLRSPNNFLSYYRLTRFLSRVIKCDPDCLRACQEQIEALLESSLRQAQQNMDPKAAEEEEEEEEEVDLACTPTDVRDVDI
Assay: Kinase assay, radioactive phosphate incorporation, CDK4/cyclin D1
Details: 100 μM ATP, 30° C.; read-out: Kinase inhibition IC50 CDK4/cyclin D1

Reported IC50 (CDK4/cyclin D1 (Homo sapiens)) for entry O=[N+]([O-])c1cccc(Nc2nccc(-c3cccc(Cn4ccnc4)c3)n2)c1 [Compound 29] is 62000 nM

Reported IC50 (CDK4/cyclin D1 (Homo sapiens)) for entry COc1ccc(Nc2nccc(-c3cccc(N(C)S(C)(=O)=O)c3)n2)cn1 [Compound 132] is 2100 nM

Reported IC50 (CDK4/cyclin D1 (Homo sapiens)) for entry N#Cc1cccc(-c2ccnc(Nc3ccc(O)cc3)n2)c1 [Compound 93] is 2500 nM

Reported IC50 (CDK4/cyclin D1 (Homo sapiens)) for entry COc1ccc(Nc2nccc(-c3cccc(Cn4cncn4)c3)n2)cn1 [Compound 50] is 9400 nM

Reported IC50 (CDK4/cyclin D1 (Homo sapiens)) for entry CN(c1cccc(-c2ccnc(Nc3ccc(O)cc3)n2)c1)S(C)(=O)=O [Compound 131] is 2500 nM

Reported IC50 (CDK4/cyclin D1 (Homo sapiens)) for entry Oc1ccc(Nc2nccc(-c3cccc(Cn4cncn4)c3)n2)cc1 [Compound 33] is 9100 nM

Reported IC50 (CDK4/cyclin D1 (Homo sapiens)) for entry COc1cccc(-c2ccnc(Nc3ccc(O)cc3)n2)c1 [Compound 98] is 590 nM

Reported IC50 (CDK4/cyclin D1 (Homo sapiens)) for entry c1cc(Cn2cncn2)cc(-c2ccnc(Nc3ccc(N4CCOCC4)cc3)n2)c1 [Compound 32] is 2200 nM

Reported IC50 (CDK4/cyclin D1 (Homo sapiens)) for entry CN(C)Cc1cccc(-c2ccnc(Nc3ccc(N4CCOCC4)cc3)n2)c1 [Compound 82] is 4600 nM

Reported IC50 (CDK4/cyclin D1 (Homo sapiens)) for entry OCc1cccc(Nc2nccc(-c3cccc(O)c3)n2)c1 [Compound 72] is 280 nM

Reported IC50 (CDK4/cyclin D1 (Homo sapiens)) for entry COc1ccc(Nc2nccc(-c3cccc(Cn4cncn4)c3)n2)cc1 [Compound 42] is 2000 nM

Reported IC50 (CDK4/cyclin D1 (Homo sapiens)) for entry CCNc1cccc(-c2ccnc(Nc3ccc(OC)cc3)n2)c1 [Compound 25] is 170 nM

Reported IC50 (CDK4/cyclin D1 (Homo sapiens)) for entry Clc1ccc(Nc2nccc(-c3cccc(CNCc4ccccc4)c3)n2)cn1 [Compound 48] is 3500 nM

Reported IC50 (CDK4/cyclin D1 (Homo sapiens)) for entry CN(c1cccc(-c2ccnc(Nc3cccc([N+](=O)[O-])c3)n2)c1)S(C)(=O)=O [Compound 129] is 2600 nM

Reported IC50 (CDK4/cyclin D1 (Homo sapiens)) for entry NC(=O)C1CCCN(Cc2cccc(-c3ccnc(Nc4cccc([N+](=O)[O-])c4)n3)c2)C1 (centres unmarked) [Compound 99] is 3800 nM

Reported IC50 (CDK4/cyclin D1 (Homo sapiens)) for entry Oc1cccc(Nc2nccc(-c3cccc(CNCc4ccccc4)c3)n2)c1 [Compound 28] is 2600 nM

Reported IC50 (CDK4/cyclin D1 (Homo sapiens)) for entry O=[N+]([O-])c1cccc(Nc2nccc(-c3cccc(CN4CCCCC4CO)c3)n2)c1 (centres unmarked) [Compound 79] is 540 nM

Reported IC50 (CDK4/cyclin D1 (Homo sapiens)) for entry COc1cccc(Nc2nccc(-c3cccc(Cn4cncn4)c3)n2)c1 [Compound 35] is 570 nM

Reported IC50 (CDK4/cyclin D1 (Homo sapiens)) for entry COc1ccc(OC)c(-c2ccnc(Nc3ccc(O)cc3)n2)c1 [Compound 45] is 28000 nM

Reported IC50 (CDK4/cyclin D1 (Homo sapiens)) for entry O=[N+]([O-])c1cccc(Nc2nccc(-c3cccc(CN4CCCC(CCO)C4)c3)n2)c1 (centres unmarked) [Compound 100] is 3400 nM

Reported IC50 (CDK4/cyclin D1 (Homo sapiens)) for entry COc1ccc(Nc2nccc(-c3cccc(CN4CCN(C)CC4)c3)n2)cn1 [Compound 58] is 11000 nM

Reported IC50 (CDK4/cyclin D1 (Homo sapiens)) for entry CN(C)c1ccc(Nc2nccc(-c3cccc(Cn4cncn4)c3)n2)cc1 [Compound 43] is 1900 nM

Reported IC50 (CDK4/cyclin D1 (Homo sapiens)) for entry O=[N+]([O-])c1cccc(Nc2nccc(-c3cccc(CO)c3)n2)c1 [Compound 91] is 870 nM

Reported IC50 (CDK4/cyclin D1 (Homo sapiens)) for entry COc1cccc(-c2ccnc(Nc3cccc(O)c3)n2)c1 [Compound 88] is 200 nM

Reported IC50 (CDK4/cyclin D1 (Homo sapiens)) for entry CN1CCN(Cc2cccc(-c3ccnc(Nc4cccc([N+](=O)[O-])c4)n3)c2)CC1 [Compound 54] is 4500 nM

Reported IC50 (CDK4/cyclin D1 (Homo sapiens)) for entry CCN(Cc1cccc(-c2ccnc(Nc3ccc(OC)nc3)n2)c1)C(C)C [Compound 53] is 1100 nM

Reported IC50 (CDK4/cyclin D1 (Homo sapiens)) for entry CCN(Cc1cccc(-c2ccnc(Nc3cccc([N+](=O)[O-])c3)n2)c1)C(C)C [Compound 46] is 1400 nM

Reported IC50 (CDK4/cyclin D1 (Homo sapiens)) for entry O=[N+]([O-])c1cccc(Nc2nccc(-c3cccc(CN4CCCC(CO)C4)c3)n2)c1 (centres unmarked) [Compound 105] is 1900 nM

Reported IC50 (CDK4/cyclin D1 (Homo sapiens)) for entry CN(c1cccc(-c2ccnc(Nc3cccc(O)c3)n2)c1)S(C)(=O)=O [Compound 130] is 1300 nM

Reported IC50 (CDK4/cyclin D1 (Homo sapiens)) for entry O=[N+]([O-])c1cccc(Nc2nccc(-c3cccc(CN4CCOCC4)c3)n2)c1 [Compound 39] is 2410 nM

Reported IC50 (CDK4/cyclin D1 (Homo sapiens)) for entry CCN(C(C)=O)c1cccc(-c2ccnc(Nc3ccc(OC)cc3)n2)c1 [Compound 23] is 7600 nM

Reported IC50 (CDK4/cyclin D1 (Homo sapiens)) for entry O=[N+]([O-])c1cccc(Nc2nccc(-c3cccc(CNCc4ccccc4)c3)n2)c1 [Compound 27] is 16000 nM

Reported IC50 (CDK4/cyclin D1 (Homo sapiens)) for entry COc1ccc(-c2ccnc(Nc3ccc(O)cc3)n2)cc1 [Compound 110] is 1300 nM

Reported IC50 (CDK4/cyclin D1 (Homo sapiens)) for entry CCN(CC)Cc1cccc(-c2ccnc(Nc3cccc([N+](=O)[O-])c3)n2)c1 [Compound 84] is 3200 nM

Reported IC50 (CDK4/cyclin D1 (Homo sapiens)) for entry N#Cc1cccc(Nc2nccc(-c3cccc(Cn4cncn4)c3)n2)c1 [Compound 36] is 4700 nM
